meta.source: patent US10717716B2

Kindly state pIC50 for each of the entries shown.
Molecular target: human recombinant HDAC1 (Homo sapiens)
Construct: purchased Enzo Life Science BML-SE456
Sequence (Q13547 whole entry): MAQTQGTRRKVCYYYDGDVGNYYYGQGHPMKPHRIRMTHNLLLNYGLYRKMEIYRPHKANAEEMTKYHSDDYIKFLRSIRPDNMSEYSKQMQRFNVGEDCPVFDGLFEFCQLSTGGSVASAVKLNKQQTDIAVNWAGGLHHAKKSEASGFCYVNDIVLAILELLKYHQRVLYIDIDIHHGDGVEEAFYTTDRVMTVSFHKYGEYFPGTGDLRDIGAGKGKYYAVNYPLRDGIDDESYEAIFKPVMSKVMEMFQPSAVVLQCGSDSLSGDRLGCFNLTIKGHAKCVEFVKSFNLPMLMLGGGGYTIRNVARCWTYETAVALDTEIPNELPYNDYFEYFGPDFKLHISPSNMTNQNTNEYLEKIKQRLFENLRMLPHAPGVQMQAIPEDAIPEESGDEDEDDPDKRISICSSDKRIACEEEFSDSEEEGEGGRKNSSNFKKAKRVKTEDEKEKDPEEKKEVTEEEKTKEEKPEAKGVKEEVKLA
Assay: HDAC1 enzyme activity inhibition assay (HDAC Fluorimetric Drug Discovery Kit)
Format: biochemical
Settings: human recombinant HDAC1, Fluor de Lys substrate 10 μM, 30° C. 60 minutes
Lab note — pIC50 values are minus log10 of concentrations in M.

Ask: Suppose we examine the compound O=C(N1CCS(=O)(=O)CC1)N(Cc1ccc(-c2nnc(C(F)(F)F)o2)cc1)c1ccc(-c2cccnc2)cc1 ; what pIC50 value has been reported?
Reply: 5.78

Ask: Suppose we examine the compound CCN1CCN(C(=O)N(Cc2ccc(-c3nnc(C(F)(F)F)o3)cc2)c2cccc(F)c2)CC1 ; what pIC50 value has been reported?
Reply: 4.78

Ask: Suppose we examine the compound O=C(N1CCN(C2COC2)CC1)N(Cc1ccc(-c2nnc(C(F)F)o2)cn1)c1ccccc1 ; what pIC50 value has been reported?
Reply: 4.25

Ask: Suppose we examine the compound O=C(N1CCS(=O)(=O)CC1)N(Cc1ccc(-c2nnc(C(F)(F)F)o2)cc1)c1cccc(-c2cccnc2)c1 ; what pIC50 value has been reported?
Reply: 5.24

---

Target: human recombinant HDAC6 (Homo sapiens, UniProt Q9UBN7)
Construct: purchased Calbiochem 382180
Sequence (Q9UBN7 1-1215): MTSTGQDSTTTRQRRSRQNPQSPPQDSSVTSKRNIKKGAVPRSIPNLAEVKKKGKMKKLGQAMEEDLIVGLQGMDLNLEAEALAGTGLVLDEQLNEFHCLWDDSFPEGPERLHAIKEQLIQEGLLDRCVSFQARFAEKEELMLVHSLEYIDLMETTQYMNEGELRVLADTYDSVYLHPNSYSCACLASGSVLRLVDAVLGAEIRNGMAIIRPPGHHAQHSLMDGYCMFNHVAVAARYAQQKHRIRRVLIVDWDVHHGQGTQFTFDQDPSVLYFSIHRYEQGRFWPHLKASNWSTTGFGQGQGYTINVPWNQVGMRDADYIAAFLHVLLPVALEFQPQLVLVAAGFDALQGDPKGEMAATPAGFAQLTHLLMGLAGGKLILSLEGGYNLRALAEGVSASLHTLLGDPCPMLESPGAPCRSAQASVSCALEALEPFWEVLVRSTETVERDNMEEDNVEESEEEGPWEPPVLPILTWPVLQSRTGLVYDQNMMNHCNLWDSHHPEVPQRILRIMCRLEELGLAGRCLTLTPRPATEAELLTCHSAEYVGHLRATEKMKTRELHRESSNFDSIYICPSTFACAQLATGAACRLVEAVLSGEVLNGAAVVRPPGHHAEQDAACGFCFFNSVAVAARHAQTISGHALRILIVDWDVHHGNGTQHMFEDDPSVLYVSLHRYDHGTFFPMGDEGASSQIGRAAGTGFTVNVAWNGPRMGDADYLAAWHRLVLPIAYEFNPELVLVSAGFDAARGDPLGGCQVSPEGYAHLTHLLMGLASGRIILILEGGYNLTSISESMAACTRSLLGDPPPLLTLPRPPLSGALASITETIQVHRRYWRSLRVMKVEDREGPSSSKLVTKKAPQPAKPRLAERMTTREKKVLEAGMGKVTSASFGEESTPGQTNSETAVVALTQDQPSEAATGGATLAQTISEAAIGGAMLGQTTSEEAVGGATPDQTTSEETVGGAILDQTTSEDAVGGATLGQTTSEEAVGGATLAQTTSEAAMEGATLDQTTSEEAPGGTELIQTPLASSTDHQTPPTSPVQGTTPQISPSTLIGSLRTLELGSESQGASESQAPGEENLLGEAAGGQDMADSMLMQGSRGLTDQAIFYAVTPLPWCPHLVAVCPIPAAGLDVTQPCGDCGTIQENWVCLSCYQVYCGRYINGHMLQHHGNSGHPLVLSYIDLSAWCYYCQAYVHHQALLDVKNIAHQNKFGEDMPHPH
Test: HDAC6 enzyme activity inhibition assay (HDAC Fluorimetric Drug Discovery Kit)
Type: biochemical
Conditions: human recombinant HDAC6, same protocol as HDAC1; read-out: HDAC6
Kindly state pIC50 for each of the entries shown.
Lab note — pIC50 values are minus log10 of concentrations in M.

Ask: Suppose we examine the compound O=C(N1CCOCC1)N(Cc1ccc(-c2nnc(C(F)(F)F)o2)cc1)c1ccc(F)cc1 ; what pIC50 value has been reported?
Reply: 6.31

Ask: Suppose we examine the compound O=C(N1CCN(CCO)CC1)N(Cc1ccc(-c2nnc(C(F)(F)F)o2)cc1)c1ccccc1 ; what pIC50 value has been reported?
Reply: 7.10

Ask: Suppose we examine the compound CC(C)N(Cc1ccc(-c2nnc(C(F)(F)F)o2)cc1)C(=O)N1CCS(=O)(=O)CC1 ; what pIC50 value has been reported?
Reply: 6.05

Ask: Suppose we examine the compound O=C(N1CC2(COC2)C1)N(Cc1ccc(-c2nnc(C(F)F)o2)cc1F)c1ccccc1 ; what pIC50 value has been reported?
Reply: 7.66

---

Molecular target: human recombinant HDAC6 (Homo sapiens, UniProt Q9UBN7)
Construct: purchased Calbiochem 382180
Experiment: HDAC6 enzyme activity inhibition assay (HDAC Fluorimetric Drug Discovery Kit)
Assay type: biochemical
Details: human recombinant HDAC6, same protocol as HDAC1; read-out: HDAC6
Kindly state pIC50 for each of the entries shown.
Lab note — pIC50 values are minus log10 of concentrations in M.

Ask: Suppose we examine the compound O=C(N1CCC(F)(F)CC1)N(Cc1ccc(-c2nnc(C(F)(F)F)o2)cc1)c1ccccc1 ; what pIC50 value has been reported?
Reply: 6.48

Ask: Suppose we examine the compound CCN1CCN(C(=O)N(Cc2ccc(-c3nnc(C(F)(F)F)o3)cc2)c2cccc(Cl)c2)CC1 ; what pIC50 value has been reported?
Reply: 6.66

Ask: Suppose we examine the compound CCCNC(=O)N(Cc1ccc(-c2nnc(C(F)(F)F)o2)cc1)c1ccccc1 ; what pIC50 value has been reported?
Reply: 6.42

Ask: Suppose we examine the compound CN(C)[C@H]1CCN(C(=O)N(Cc2ccc(-c3nnc(C(F)F)o3)cn2)c2ccc(F)c(Cl)c2)C1 ; what pIC50 value has been reported?
Reply: 7.28

Ask: Suppose we examine the compound CN1CCN(C(=O)N(Cc2ccc(-c3nnc(C(F)F)o3)cc2F)c2ccc(Cl)cc2)CC1 ; what pIC50 value has been reported?
Reply: 7.20

---

Target: human recombinant HDAC6 (Homo sapiens)
Construct: purchased Calbiochem 382180
Test: HDAC6 enzyme activity inhibition assay (HDAC Fluorimetric Drug Discovery Kit)
Format: biochemical
Settings: human recombinant HDAC6, same protocol as HDAC1; read-out: HDAC6
Kindly state IC50 for each of the entries shown.
Number only, in nM; omit the unit.

Ask: # query: IC50 | item O=C(N1CCS(=O)(=O)CC1)N(Cc1ccc(-c2nnc(C(F)F)o2)cc1)c1ccc(-c2ccc3c(c2)OCO3)cc1 [Compound 21494] | system: human recombinant HDAC6 (Homo sapiens)
Reply: 112

Ask: # query: IC50 | item O=C(NCCN(Cc1ccccc1)Cc1ccccc1)N(Cc1ccc(-c2nnc(C(F)F)o2)cc1F)c1ccccc1 [Compound 22017] | system: human recombinant HDAC6 (Homo sapiens)
Reply: 1380

Ask: # query: IC50 | item O=C(N1CCS(=O)(=O)CC1)N(Cc1ccc(-c2nnc(C(F)F)o2)cc1)c1ccc(-c2cccnc2)cc1 [Compound 21490] | system: human recombinant HDAC6 (Homo sapiens)
Reply: 37

Ask: # query: IC50 | item COc1ccccc1N(Cc1ccc(-c2nnc(C(F)F)o2)cc1F)C(=O)N1CCS(=O)(=O)CC1 [Compound 21480] | system: human recombinant HDAC6 (Homo sapiens)
Reply: 49

Ask: # query: IC50 | item COc1ccc(N(Cc2ccc(-c3nnc(C(F)F)o3)cc2)C(=O)N2CCN(C3COC3)CC2)cc1 [Compound 21951] | system: human recombinant HDAC6 (Homo sapiens)
Reply: 391

Ask: # query: IC50 | item CCN1CCN(C(=O)N(Cc2ccc(-c3nnc(C(F)(F)F)o3)cc2F)c2cccc(F)c2)CC1 [Compound 21866] | system: human recombinant HDAC6 (Homo sapiens)
Reply: 137

Ask: # query: IC50 | item O=C(N1CCOCC1)N(Cc1ccc(-c2nnc(C(F)(F)F)o2)cn1)c1ccccc1 [Compound 21336] | system: human recombinant HDAC6 (Homo sapiens)
Reply: 95

Ask: # query: IC50 | item CN1CCN(C(=O)N(Cc2ccc(-c3nnc(C(F)F)o3)cc2F)c2ccccc2)CC1 [Compound 21378] | system: human recombinant HDAC6 (Homo sapiens)
Reply: 20

Ask: # query: IC50 | item C[C@@H]1CN(CCNC(=O)N(Cc2ccc(-c3nnc(C(F)F)o3)cc2F)c2ccccc2)C[C@H](C)N1 [Compound 21992] | system: human recombinant HDAC6 (Homo sapiens)
Reply: 75

Ask: # query: IC50 | item O=C(N1CCOCC1)N(Cc1ccc(-c2nnc(C(F)F)o2)cc1F)c1nccs1 [Compound 22018] | system: human recombinant HDAC6 (Homo sapiens)
Reply: 2390

Ask: # query: IC50 | item O=C(NCCN1CCS(=O)(=O)CC1)N(Cc1ccc(-c2nnc(C(F)F)o2)cc1F)c1ccccc1 [Compound 21985] | system: human recombinant HDAC6 (Homo sapiens)
Reply: 45

Ask: # query: IC50 | item O=C(N1CCC(F)(F)C1)N(Cc1ccc(-c2nnc(C(F)F)o2)cc1F)c1ccc(F)c(Cl)c1 [Compound 21667] | system: human recombinant HDAC6 (Homo sapiens)
Reply: 41

Ask: # query: IC50 | item O=C(N1CCOCC1)N(Cc1ccc(Cc2nnc(C(F)(F)F)o2)cc1)c1ccccc1 [Compound 21355] | system: human recombinant HDAC6 (Homo sapiens)
Reply: 6910

Ask: # query: IC50 | item O=C(N1CCOCC1)N(Cc1c(F)cc(-c2nnc(C(F)(F)F)o2)cc1F)c1ccccc1 [Compound 21431] | system: human recombinant HDAC6 (Homo sapiens)
Reply: 256

Ask: # query: IC50 | item O=C(N1CCN(c2ccccn2)CC1)N(Cc1ccc(-c2nnc(C(F)(F)F)o2)cc1)c1ccccc1 [Compound 21403] | system: human recombinant HDAC6 (Homo sapiens)
Reply: 334
